- Tested on: HeLa Kyoto;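 further: synchronized HeLa Kyoto cells, proteins quantified by TMT10plex mass spectrometry, three biological replicates, mitosis taken 0.5 h after nocodazole release, G1/S directly after double thymidine block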
- ASSAY DETAILS: thermal stability score vs G1/S (z-score of summed log2 fold changes over temperatures); higher = more thermally stable than in G1/S
- CONDITIONS USED: cell cycle stage: early G1 (4.5 h after nocodazole release)
Lab note: compare thermal stability score against -0.1. Equal or greater, write satisfied. Smaller, write not satisfied.

>>> group_label("MAKGDPKKPKGKMSAYAFFVQTCREEHKKKNPEVPVNFAEFSKKCSERWKTMSGKEKSKFDEMAKADKVRYDREMKDYGPAKGGKKKKDPNAPKRPPSGFFLFCSEFRPKIKSTNPGISIGDVAKKLGEMWNNLNDSEKQPYITKAAKLKEKYEKDVADYKSKGKFDGAKGPAKVARKKVEEEDEEEEEEEEEEEEEEDE [HMGB3]")
"satisfied"
>>> group_label("MARHVFLTGPPGVGKTTLIHKASEVLKSSGVPVDGFYTEEVRQGGRRIGFDVVTLSGTRGPLSRVGLEPPPGKRECRVGQYVVDLTSFEQLALPVLRNADCSSGPGQRVCVIDEIGKMELFSQLFIQAVRQTLSTPGTIILGTIPVPKGKPLALVEEIRNRKDVKVFNVTKENRNHLLPDIVTCVQSSRK [NTPCR]")
"satisfied"
>>> group_label("MAASRWARKAVVLLCASDLLLLLLLLPPPGSCAAEGSPGTPDESTPPPRKKKKDIRDYNDADMARLLEQWEKDDDIEEGDLPEHKRPSAPVDFSKIDPSKPESILKMTKKGKTLMMFVTVSGSPTEKETEEITSLWQGSLFNANYDVQRFIVGSDRAIFMLRDGSYAWEIKDFLVGQDRCADVTLEGQVYPGKGGGSKEKNKTKQDKGKKKKEGDLKSRSSKEENRAGNKREDL [MESDC2]")
"satisfied"
>>> group_label("MAAAAPDSRVSEEENLKKTPKKKMKMVTGAVASVLEDEATDTSDSEGSCGSEKDHFYSDDDAIEADSEGDAEPCDKENENDGESSVGTNMGWADAMAKVLNKKTPESKPTILVKNKKLEKEKEKLKQERLEKIKQRDKRLEWEMMCRVKPDVVQDKETERNLQRIATRGVVQLFNAVQKHQKNVDEKVKEAGSSMRKRAKLISTVSKKDFISVLRGMDGSTNETASSRKKPKAKQTEVKSEEGPGWTILRDDFMMGASMKDWDKESDGPDDSRPESASDSDT [RRP15]")
"not satisfied"

As a next step, examine the sequence that follows.
Say whether MFKKFDEKENVSNCIQLKTSVIKGIKNQLIEQFPGIEPWLNQIMPKKDPVKIVRCHEHIEILTVNGELLFFRQREGPFYPTLRLLHKYPFILPHQQVDKGAIKFVLSGANIMCPGLTSPGAKLYPAAVDTIVAIMAEGKQHALCVGVMKMSAEDIEKVNKGIGIENIHYLNDGLWHMKTYK [MCTS1] shows thermal stability score of -0.1 or more.
not satisfied
